- TARGET DESC: Calcium-activated potassium channel subunit alpha-1 (Rattus norvegicus, UniProt Q62976)
- Sequence (Q62976 whole entry): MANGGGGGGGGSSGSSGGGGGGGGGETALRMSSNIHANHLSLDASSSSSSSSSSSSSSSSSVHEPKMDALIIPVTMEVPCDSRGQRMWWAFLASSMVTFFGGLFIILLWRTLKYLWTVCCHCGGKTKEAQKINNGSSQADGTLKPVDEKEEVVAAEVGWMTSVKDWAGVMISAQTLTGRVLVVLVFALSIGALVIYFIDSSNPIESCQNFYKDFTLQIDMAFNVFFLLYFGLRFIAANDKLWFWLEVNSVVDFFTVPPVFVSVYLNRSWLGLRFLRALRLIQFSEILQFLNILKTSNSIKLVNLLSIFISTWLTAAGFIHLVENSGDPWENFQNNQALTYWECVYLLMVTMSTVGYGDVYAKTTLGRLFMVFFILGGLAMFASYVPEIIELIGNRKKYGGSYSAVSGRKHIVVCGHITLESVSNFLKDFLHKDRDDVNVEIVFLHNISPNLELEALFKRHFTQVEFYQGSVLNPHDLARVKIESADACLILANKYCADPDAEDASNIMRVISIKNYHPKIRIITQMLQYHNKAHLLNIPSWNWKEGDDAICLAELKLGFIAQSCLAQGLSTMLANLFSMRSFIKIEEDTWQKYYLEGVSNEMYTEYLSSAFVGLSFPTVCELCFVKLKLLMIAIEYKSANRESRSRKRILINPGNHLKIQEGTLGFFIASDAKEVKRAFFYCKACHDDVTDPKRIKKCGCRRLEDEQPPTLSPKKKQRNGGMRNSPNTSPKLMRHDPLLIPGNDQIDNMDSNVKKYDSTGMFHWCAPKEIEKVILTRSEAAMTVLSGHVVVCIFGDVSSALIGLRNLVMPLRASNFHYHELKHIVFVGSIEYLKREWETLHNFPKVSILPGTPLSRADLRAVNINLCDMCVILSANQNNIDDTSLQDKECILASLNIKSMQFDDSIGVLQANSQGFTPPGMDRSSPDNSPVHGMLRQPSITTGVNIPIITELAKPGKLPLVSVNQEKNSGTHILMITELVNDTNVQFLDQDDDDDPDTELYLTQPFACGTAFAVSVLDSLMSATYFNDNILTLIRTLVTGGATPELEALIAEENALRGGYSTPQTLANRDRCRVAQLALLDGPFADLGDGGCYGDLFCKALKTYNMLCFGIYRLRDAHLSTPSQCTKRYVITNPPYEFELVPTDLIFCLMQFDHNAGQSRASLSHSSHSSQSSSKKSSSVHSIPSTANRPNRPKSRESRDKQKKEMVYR
- MEASUREMENT PROTOCOL: Activation of large-conductance calcium-activated potassium channel-mediated vasorelaxation in endothelium-denuded normotensive Wistar rat thoracic aorta assessed as potassium chloride-induced contractile tension
pIC50: −log10 of the molar value.
VALUE TYPE: pIC50

I. COc1ccc(Br)cc1C1Sc2ccccc2NC1=O (configuration not stated)
II. COc1ccc(Br)cc1C1Sc2ccc(C(F)(F)F)cc2N(C)C1=O (configuration not stated)
input: I or II : whose pIC50 is greater? Field: selected label. Fill in the label of the entry you choose.
output: II
(II: 6.21, I: 4.80)

A. COc1ccc(Br)cc1[C@@H](O)[C@H]1Sc2ccc(C(F)(F)F)cc2NC1=O (relative stereo)
B. COc1ccccc1C1CNc2cc(C(F)(F)F)ccc2S1 (configuration not stated)
C. COc1c(Br)cc(Br)cc1C1Sc2ccc(C(F)(F)F)cc2NC1=O (configuration not stated)
input: Arrange the 3 compounds by rising pIC50, starting with the smallest. Labels, requested order.
output: C, B, A
(C: 4.30, B: 4.65, A: 5.20)

Entry source: ChEMBL document CHEMBL1156623
